Attribution: ChEMBL document CHEMBL2169842

Assay: Cell cycle arrest in human HeLaS3 cells assessed as accumulation at sub-G1 phase after 9 hrs using propidium iodide staining by flow cytometry (reference value: 2.41%)
Assay type: functional, cell-based
Details: HeLa S3
Provide the recorded Activity for the entries that follow.
Only the number, expressed in %, is required.

Request: What Activity value was documented for this molecule, `c1ccc(CNc2cc3c(cn2)[nH]c2ccccc23)cc1` ?
Response: 6.08

Request: And what about the molecule `O=C(Nc1cccc2c1[nH]c1cnc(NCc3ccccc3)cc12)c1ccccc1` ?
Response: 3.89

Request: Continue with `O=C(Nc1cc(Cl)cc2c1[nH]c1cnc(NCc3ccccc3)cc12)c1ccccc1`
Response: 6.59

Request: Consider next the molecule `Clc1ccc2[nH]c3cnc(NCc4ccccc4)cc3c2c1` in the same way.
Response: 9.14

---

Experiment: Cell cycle arrest in human HeLaS3 cells assessed as accumulation at sub-G1 phase after 24 hrs using propidium iodide staining by flow cytometry (reference value: 2.41%)
Format: functional, cell-based
Details: HeLa S3
Could you please report measured Activity for the items listed next?
Enter your answer as a number in %; do not include the unit.

Request: // lookup Activity for `c1ccc(CNc2cc3c(cn2)[nH]c2ccccc23)cc1`
Response: 16.2

Request: Same thing, different molecule: `O=C(Nc1cc(Cl)cc2c1[nH]c1cnc(NCc3ccccc3)cc12)c1ccccc1`
Response: 14.8

Request: Now give it for `Clc1ccc2[nH]c3cnc(NCc4ccccc4)cc3c2c1` too.
Response: 14.6

Request: Lookup `O=C(Nc1cccc2c1[nH]c1cnc(NCc3ccccc3)cc12)c1ccccc1`
Response: 5.87

---

Assay: Cell cycle arrest in human HeLaS3 cells assessed as accumulation at S phase after 48 hrs using propidium iodide staining by flow cytometry (reference value: 6.36%)
Type: functional, cell-based
Conditions: HeLa S3
Provide the reported Activity of each item.
Give just the number in %; leave the unit off.

Request: Which Activity is listed for `Clc1ccc2[nH]c3cnc(NCc4ccccc4)cc3c2c1` ?
Response: 11.3

Request: Also need `O=C(Nc1cccc2c1[nH]c1cnc(NCc3ccccc3)cc12)c1ccccc1` , thanks.
Response: 9.05

Request: Item: `O=C(Nc1cc(Cl)cc2c1[nH]c1cnc(NCc3ccccc3)cc12)c1ccccc1`
Response: 11.1

Request: Next: `c1ccc(CNc2cc3c(cn2)[nH]c2ccccc23)cc1`
Response: 16.2
